# subject of test: PAX6 PD S74G (human, UniProt P26367 4-136, S74G)
# Sequence (P26367 4-136 S74G): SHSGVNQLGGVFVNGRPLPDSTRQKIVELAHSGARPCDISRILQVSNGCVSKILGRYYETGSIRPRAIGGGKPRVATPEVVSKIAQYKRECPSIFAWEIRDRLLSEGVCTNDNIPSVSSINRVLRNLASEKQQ
# run description: ITC; ITC (iTC200) at 25 °C in buffer C (composition not given; protein stored in 25 mM Hepes pH 7.5, 150 mM NaCl, 5 mM b-ME); 20 uM protein in cell, 200 uM DNA in syringe, one-site model
# condition set: protein: recombinant; 5' overhang 2 nt on each strand (AA/TT), 24 bp
property name: pKd
pKd is a log-scale quantity: -log10 of the concentration expressed in molar.

Please fill in: pKd reported for P6B (dsDNA) DNA 1: AAGCATTTTCACGCATGAGTGCACAG DNA 2: TTCTGTGCACTCATGCGTGAAAATGC = 6.16

Source: paper PMC7046147
